# measurement_target: MRGPRX4 (Homo sapiens)
# Sequence (Q96LA9 whole entry): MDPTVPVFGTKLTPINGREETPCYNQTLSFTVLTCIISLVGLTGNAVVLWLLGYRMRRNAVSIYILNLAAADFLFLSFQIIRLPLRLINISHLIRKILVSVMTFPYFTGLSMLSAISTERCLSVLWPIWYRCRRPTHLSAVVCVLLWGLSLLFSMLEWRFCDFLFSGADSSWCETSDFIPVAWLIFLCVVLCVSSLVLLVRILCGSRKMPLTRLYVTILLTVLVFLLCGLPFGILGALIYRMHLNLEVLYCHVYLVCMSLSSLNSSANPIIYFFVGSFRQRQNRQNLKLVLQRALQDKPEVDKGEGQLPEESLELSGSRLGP
# assay: MRGPR X4 antagonist activity, IP-One Gq HTRF assay in stably transfected HEK cells (versus agonist bilirubin, deoxycholic acid, conjugated bilirubin, urobilin, obeticholic acid or BAR502)
# Type: cell-based
# Parameters: expressed in transfected cells; host or cells: HEK cells, stably transfected
# cond: versus 10 μM Bilirubin agonist; HEK cells expressing human MRGPR X4; read-out: MRGPR4 Antagonist Activity
pIC50: −log10 of the molar value.
// reported pIC50 for each item listed

O=C(O)c1cccc(COc2ccc(C(F)(F)F)cc2Cl)c1F ... > 7.00
Cc1cc(C(F)(F)F)ccc1OCc1cccc(C(=O)O)c1 ... > 7.00
O=C(NCCCO)c1cccc(COc2ccc(C(F)(F)F)cc2Cl)c1 ... 6.30 to 7.00
O=C(O)c1nc(COc2ccc(C(F)(F)F)cc2Cl)ccc1F ... > 7.00
CC(Oc1ccc(C(F)(F)F)cc1Cl)c1cccc(C(=O)O)c1 (centres unmarked) ... > 7.00
O=C(O)c1cccc(COc2ccc(OC(F)(F)F)cc2Cl)c1 ... > 7.00
O=C(O)c1cccc(COc2cccc3ccccc23)c1 ... 6.00 to 6.30
Cc1ccc(OCc2cccc(C(=O)O)c2)c(F)c1 ... 5.60 to 6.00
O=C(O)c1cccc(COc2ncc(C(F)(F)F)cc2Cl)c1 ... 6.30 to 7.00
O=C(O)c1cccc(COc2ccc3c(c2)CCC3)c1 ... 5.60 to 6.00

Now for the compound whose pIC50 we want.
Reported pIC50 for O=C(O)c1cc(Br)cc(COc2ccc(C(F)(F)F)cc2Cl)n1 was > 7.00
